Data credit: paper PMC12592502

- System: K. pneumoniae ATCC 13883
- assay_overview: MIC, broth microdilution (CLSI)
- Format: cell-based, Klebsiella pneumoniae
- run_conditions: Klebsiella pneumoniae, ATCC13883, ID-MHBCA + 1 µg/mL supplemental iron

compound	target_system	result_units	result_modifier	MIC
CC1(C)SC2C(NC(=O)C(NC(=O)CN(CCCCNC(=O)c3cccc(O)c3O)C(=O)c3cccc(O)c3O)c3ccccc3)C(=O)N2C1C(=O)O (centres unmarked)	K. pneumoniae ATCC 13883	µM	>	200
N[C@@H](C(=O)N[C@@H]1C(=O)N2C(C(=O)O)=C(Cl)CS[C@H]12)c1ccccc1 [CEF, cefaclor, reference compound]	K. pneumoniae ATCC 13883	µM	=	6.3
CC1(C)S[C@@H]2[C@H](NC(=O)[C@H](N)c3ccccc3)C(=O)N2[C@H]1C(=O)O [AMP, ampicillin, reference compound]	K. pneumoniae ATCC 13883	µM	>	200
O=C(CCC(=O)N(CCCCNC(=O)c1cccc(O)c1O)CCCNC(=O)c1cccc(O)c1O)NCCCCCN(O)C(=O)CCCC(=O)NC(C(=O)NC1C(=O)N2C(C(=O)O)=C(Cl)CSC12)c1ccccc1 (centres unmarked)	K. pneumoniae ATCC 13883	µM	>	200
O=C(CN(CCCCNC(=O)c1cccc(O)c1O)C(=O)c1cccc(O)c1O)NC(C(=O)NC1C(=O)N2C(C(=O)O)=C(Cl)CCC12)c1ccccc1 (centres unmarked)	K. pneumoniae ATCC 13883	µM	=	6.3
